Assay: Peptide stability in simulated intestinal fluid (SIF)
Type: in vitro ADME, porcine
Conditions: simulated gi fluid; 8 h, 37 °C, pH 6.8; read-out: Proteolytic stability: SIF (8 h) % remaining
Reported remaining at 8 h values follow for various compounds
Show the value, then the unit it is measured in.

As a guide, the following entries are already answered.
| Query Smiles | Reported |
| --- | --- |
| O=C(N[C@H]1CSCCS(=O)(=O)CCSCCNC(=O)C2(CC2)CNC(=O)[C@H](Cc2ccccc2)NC1=O)c1ccc(Cl)s1 | 6.3% |
| O=C1C[C@H]2CCCN2C(=O)[C@H](Cc2ccccc2)NC(=O)[C@@H](NC(=O)c2ccc(Cl)s2)CSCc2cccc(n2)CSCCN1 | 76% |
| O=C1C[C@H]2CCCN2C(=O)[C@H](Cc2ccccc2)NC(=O)[C@@H](NC(=O)c2ccc(Cl)s2)CCCSCc2cccc(n2)CSCCN1 | 31% |
| O=C1NCCSCc2cccc(n2)CSC[C@H](NC(=O)c2ccc(Cl)s2)C(=O)N[C@@H](CO)C(=O)NCc2cccc1c2 | 92% |
| O=C1C[C@H]2CCCN2C(=O)[C@H](Cc2ccccn2)NC(=O)[C@@H](NC(=O)c2ccc(Cl)s2)CSCCS(=O)(=O)CCSCCN1 | 96% |

Now for the compound whose remaining at 8 h we want.
Ask: Item "C[C@@H]1NC(=O)[C@@H](NC(=O)c2ccc(Cl)s2)CNC(=O)CCSCc2cccc(n2)CSCCNC1=O" has what recorded remaining at 8 h?
Result: 99%

---

Biological target: rat α-thrombin (Rattus norvegicus, UniProt P18292)
Construct: rat α-thrombin (Molecular Innovations) were used at final concentrations of 2 nM and 3 nM; purchased Molecular Innovations
Assay: Protease inhibition, Ki for rat α-thrombin (fluorogenic substrate Z-Gly-Gly-Arg-AMC)
Assay type: biochemical
Conditions: average of R1-R3; read-out: Ki Average
Measured Metric: pKi
The quantity pKi is defined as the negative base-10 logarithm of the molar concentration.

| Compound | Tgt | pKi |
| --- | --- | --- |
| O=C1C[C@H]2CCCN2C(=O)[C@H](Cc2ccccc2)NC(=O)[C@@H](NC(=O)c2ccc(Cl)s2)CSCCS(=O)(=O)CCSCCN1 [peptide 11] | rat α-thrombin (Rattus norvegicus, UniProt P18292) | 7.43 |

Now for the compound whose pKi we want.
Ask: Item "CN1CCC(=O)NCCSCCS(=O)(=O)CCSC[C@H](NC(=O)c2ccc(Cl)s2)C(=O)N[C@@H](Cc2ccccc2)C1=O" has what recorded pKi?
Result: 6.45

---

Target: human α-thrombin (Homo sapiens, UniProt P00734)
Test: Sub-library screen for active and permeable cyclic peptides (PAMPA plus thrombin inhibition)
Format: biochemical
Conditions: donor sample diluted to theoretical equilibrium (1 μM in assay); crude; slopes normalized to DMSO
Reported Residual thrombin activity: Equilibrated sample values follow for various compounds
Reply briefly: the number, and no unit.

Ask: Item "COc1ccc(C[C@@H]2NC(=O)[C@@H](NC(=O)c3ccc(Cl)s3)CSCc3cccc(n3)CSCCNC(=O)C[C@H]3CCCN3C2=O)cc1" has what recorded Residual thrombin activity: Equilibrated sample?
Result: 96.7

Ask: Item "COc1ccc(C[C@@H]2NC(=O)[C@@H](NC(=O)c3ccc(Cl)s3)CCSCc3cccc(c3)CSCCNC(=O)C[C@H]3CCCN3C2=O)cc1" has what recorded Residual thrombin activity: Equilibrated sample?
Result: 49.9

Ask: Item "COc1ccc(C[C@@H]2NC(=O)[C@@H](NC(=O)c3ccc(Cl)s3)CCSCc3ccccc3CSCCNC(=O)C[C@H]3CCCN3C2=O)cc1" has what recorded Residual thrombin activity: Equilibrated sample?
Result: 95.5

Ask: Item "O=C1C[C@H]2CCCN2C(=O)[C@H](Cc2ccccc2)NC(=O)[C@@H](NC(=O)c2ccc(Cl)s2)CCSCCS(=O)(=O)CCSCCN1" has what recorded Residual thrombin activity: Equilibrated sample?
Result: 25.8

Ask: Item "O=C1CSCCNC(=O)C[C@H]2CCCN2C(=O)[C@H](Cc2ccc(Cl)cc2)NC(=O)[C@@H](NC(=O)c2ccc(Cl)s2)CCSC1" has what recorded Residual thrombin activity: Equilibrated sample?
Result: 101.4

Ask: Item "O=C1C[C@H]2CCCN2C(=O)[C@H](Cc2ccc(C(F)(F)F)cc2)NC(=O)[C@@H](NC(=O)c2ccc(Cl)s2)CSC/C=C/CSCCN1" has what recorded Residual thrombin activity: Equilibrated sample?
Result: 92.7
